abundance fitness listing for selected variants.
B1: Tyrosine-protein kinase Lck, residues 63 to 120; numbered along this chain, P06239 (parent)
chain: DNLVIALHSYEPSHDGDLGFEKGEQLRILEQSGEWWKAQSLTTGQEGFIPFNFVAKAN

- Variants of: B1
- Test Summary: abundance fitness (aPCA) (normalised: wild type 0, dead -1); higher = more abundant; growth selection in yeast, the domain comes from the species named
- Protocol Conditions: Homo sapiens
Returns: the value as a bare number; no unit string appended.

// known answers, use as guide
{"Variant Id": "G44M", "abundance fitness": -0.272}
{"Variant Id": "E24S", "abundance fitness": -0.506}

# input I would be grateful if you could share the reported abundance fitness for `G23F` .
# output -0.573
